test system: Escherichia coli TOP10; test: shrunken log2 fold change of peptide-encoding DNA abundance (4.5 h post-induction vs induction); higher = less antimicrobial activity (less host growth inhibition); settings: time post-induction: 4.5 h; library: site-saturation at positions 5, 18, 19, 20;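 further: peptides expressed intracellularly from a pBAD plasmid library in pooled LB shake-flask culture, induced with 0.3% L-arabinose, DNA abundance read by NGS, three biological replicates, DESeq2 with apeglm shrinkage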

Seq Text | Target Under Test | shrunken log2 fold change
RRIRQRPPRLPRPRPRPRWPPRP | Escherichia coli TOP10 | 0.616
RRIRPRPPRLPRPRPRPECEPRP | Escherichia coli TOP10 | 0.291
RRIRRRPPRLPRPRPRPACFPRP | Escherichia coli TOP10 | 0.456
RRIRWRPPRLPRPRPRPKPTPRP | Escherichia coli TOP10 | 0.0876
RRIRVRPPRLPRPRPRPLKLPRP | Escherichia coli TOP10 | -0.337
RRIRCRPPRLPRPRPRPNVNPRP | Escherichia coli TOP10 | -0.461
RRIRMRPPRLPRPRPRPKWLPRP | Escherichia coli TOP10 | 0.612
RRIRARPPRLPRPRPRPFYHPRP | Escherichia coli TOP10 | -0.462
RRIRGRPPRLPRPRPRPWSWPRP | Escherichia coli TOP10 | 1.1
RRIRSRPPRLPRPRPRPLQCPRP | Escherichia coli TOP10 | 0.116
RRIRYRPPRLPRPRPRPPNYPRP | Escherichia coli TOP10 | -0.523
RRIRGRPPRLPRPRPRPCDGPRP | Escherichia coli TOP10 | 0.123
RRIRGRPPRLPRPRPRPCPSPRP | Escherichia coli TOP10 | 0.0189
RRIRPRPPRLPRPRPRPDVTPRP | Escherichia coli TOP10 | -0.399
RRIRYRPPRLPRPRPRPITTPRP | Escherichia coli TOP10 | 0.0271
